Measured values drawn from patent US20230348450A1 for this set.

Biological target: hBPGM (Homo sapiens (Human), UniProt P07738)
Sequence (P07738 whole entry, looked up): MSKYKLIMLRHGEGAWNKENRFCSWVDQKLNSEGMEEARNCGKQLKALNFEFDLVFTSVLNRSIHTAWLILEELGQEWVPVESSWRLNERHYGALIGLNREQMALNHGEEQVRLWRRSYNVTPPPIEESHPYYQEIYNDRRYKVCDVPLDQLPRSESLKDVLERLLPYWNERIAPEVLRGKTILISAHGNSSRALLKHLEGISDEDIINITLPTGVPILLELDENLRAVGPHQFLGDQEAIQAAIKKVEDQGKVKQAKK
Give IC50 for every item shown.
Give bare numbers, in nM.

Please review the entries below; each comes with its answer.
Cc1nc(Cc2cccnc2)sc1-c1cccc(-c2cc(O)c(C(=O)O)cc2F)n1: 110
Cc1nc(C)c(-c2ccn(-c3ccc(C(=O)O)c(O)c3)n2)s1: 3800
Cc1nc(COc2cccc(C#N)n2)sc1-c1cccc(-c2ccc(C(=O)O)c(O)c2)c1: 880
Cc1nc(COC(=O)N2CCN(C)CC2)sc1-c1csc(-c2cc(O)c(C(=O)O)cc2F)n1: 180
Cc1nc(COC(=O)N(C)C)sc1-c1csc(-c2cc(O)c(C(=O)O)cc2F)n1: 44
Cc1nc(COc2ccc(F)cn2)sc1-c1ccn(-c2ccc(C(=O)O)c(O)c2)n1: 290
Cc1nc(CN2CCCCC2)sc1-c1cccc(-c2ccc(C(=O)O)c(O)c2)c1: 5000

Next compound, please.
State the recorded IC50 for this entry: COC(=O)NCc1nc(C)c(-c2csc(-c3ccc(C(=O)NS(=O)(=O)c4ccc(OCC(=O)O)cc4)cc3)n2)s1
61

====

Target: hBPGM (Homo sapiens (Human), UniProt P07738)
pIC50: −log10 of the molar value.
Binary call on pIC50: yes from 6 upward, no beneath that.

Use these answered entries as a reference point.
Cc1nc(Cc2cccnc2)sc1-c1cccc(-c2ccc(C(=O)O)c(O)c2)c1: yes
Cc1nc(COC2CCOC2)sc1-c1cccc(-c2ccc(C(=O)O)cc2)c1 (centres unmarked): no
Cc1nc(C(C)C)sc1-c1cccc(-c2ccc(C(=O)O)c(O)c2)c1: no
Cc1nc(C)c(-c2cccc(-c3ccc(O)c(C(=O)O)c3)c2)s1: no

Moving on to the next compound.
I'd appreciate it if you could say whether CCOC(=O)NCc1nc(C)c(-c2csc(-c3cc(O)c(C(=O)O)cc3F)n2)s1 has pIC50 at least equal to 6.
yes

====

Target: hBPGM (Homo sapiens (Human), UniProt P07738)
Give pIC50 for every item shown.
Answers are plain numbers, as −log10 of the molar value.

Cc1nc(Cn2cccn2)sc1-c1cccc(-c2ccc(C(=O)O)c(O)c2)c1: 6.09
Cc1nc(COc2ncccn2)sc1-c1ccnc(-c2ccc(C(=O)O)cc2)c1: 4.77
Cc1nc(Cn2c(C)cccc2=O)sc1-c1cccc(-c2ccc(C(=O)O)c(O)c2)c1: 6.28
Cc1nc(OCC2CCCCO2)sc1-c1cccc(-c2ccc(C(=O)O)cc2)n1 (centres unmarked): 4.72
COC(=O)NCc1nc(C)c(-c2csc(-c3cc(O)c(C(=O)O)cn3)n2)s1: 6.55
COCCNCc1nc(C)c(-c2csc(-c3cc(O)c(C(=O)O)cc3F)n2)s1: 6.28
Cc1ccc(Cc2nc(C)c(-c3csc(-c4cc(O)c(C(=O)O)cc4F)c3)s2)cn1: 6.77
Cc1cccc(Cc2nc(C)c(-c3cccc(-c4ccc(C(=O)O)c(O)c4)c3)s2)n1: 5.59

Please report pIC50 for every entry that follows.
1. Cc1nc(Cc2ccccc2C(F)(F)F)sc1-c1cccc(-c2ccc(C(=O)O)c(O)c2)c1
2. Cc1nc(COc2ncccn2)sc1-c1cccc(-c2ccc(C(=O)O)c(C(F)F)c2)n1
3. Cc1nc(C)c(-c2cc(-c3cc(O)c(C(=O)O)cc3F)sn2)s1

5.15
6.74
6.18

====

Give pIC50 for every item shown.
Target: UniProtKB P07738
Give bare numbers, as −log10 of the molar value.

Please review the entries below; each comes with its answer.
COC(=O)NCc1ccc(-c2csc(-c3cc(O)c(C(=O)O)cc3F)n2)cn1: 5.77
Cc1nc(CN)sc1-c1csc(-c2cc(O)c(C(=O)O)cc2F)c1: 6.57
Cc1nc(CNc2ncccn2)sc1-c1csc(-c2cc(O)c(C(=O)O)cc2F)n1: 7.52

Next compound, please.
State the recorded pIC50 for this entry: COC(=O)NCc1nc(C)c(-c2csc(-c3cc(O)c(C(=O)NCC(=O)O)cc3F)n2)s1
6.11

====

Reported IC50 for target or system hBPGM (Homo sapiens (Human), UniProt P07738), by entry.
One number for each entry, in nM.

Please report IC50 for every entry that follows.
1. Cc1nc(COc2ccc(F)cn2)sc1-c1ccn(-c2ccc(C(=O)O)c(C(F)F)c2)n1 [Example 17]
2. Cc1nc(COc2cnn(C(C)(C)C)c2)sc1-c1cccc(-c2ccc(C(=O)O)cc2)n1 [Example 59]
3. Cc1nc(Cc2ccccn2)sc1-c1cccc(-c2ccc(C(=O)O)c(O)c2)c1 [Example 282]

[890, 970, 750]

Please report IC50 for every entry that follows.
1. Cc1nc(CNC(C)C)sc1-c1csc(-c2cc(O)c(C(=O)O)cc2F)n1 [Example 176]
2. COC(=O)NCc1nc(C)c(-c2csc(-c3cc(N)c(C(=O)O)cc3F)n2)s1 [Example 195]

1. 890
2. 1200

====

Target: hBPGM (Homo sapiens (Human), UniProt P07738)
Assay: BPGM Synthase Assay
Type: biochemical
Conditions: Table 6 additional results; read-out: huBPGM: synthase Enzyme IC50
pIC50: −log10 of the molar value.
Binary call on pIC50: criterion met from 6 upward, criterion not met beneath that.

Use these answered entries as a reference point.
Cc1nc(C)c(C2CCCN(c3ccc(C(=O)O)c(O)c3)C2)s1 (stereo not drawn): criterion not met
Cc1nc(CNCC(C)(C)C)sc1-c1csc(-c2cc(O)c(C(=O)O)cc2F)n1: criterion met
Cc1nc(COc2cccc(N)n2)sc1-c1csc(-c2cc(O)c(C(=O)O)cc2F)n1: criterion met
Cc1nc(Cc2ccccc2)sc1-c1csc(-c2ccc(C(=O)O)c(O)c2)n1: criterion met
Cc1nc(COc2ccccn2)sc1-c1cccc(-c2ccc(C(=O)O)c(O)c2)n1: criterion met
Cc1nc(COc2ccc(F)cn2)sc1-c1ccc(-c2ccc(C(=O)O)c(O)c2)s1: criterion not met
Cc1nc(C)c(-c2cccc(-c3cc(O)c(C(=O)O)cc3F)n2)s1: criterion met
Cc1cc(C(=O)O)cc(C)c1-c1cccc(-c2sc(COc3ncccn3)nc2C)n1: criterion not met
Cc1nc(CNC(=O)C2CC2)sc1-c1cccc(-c2cc(O)c(C(=O)O)cc2F)n1: criterion met
Cc1nc(C)c(-c2csc(-c3ccc(C(=O)O)c(O)c3)c2)s1: criterion met

I'd appreciate it if you could say whether COC(=O)C(=O)NCc1nc(C)c(-c2csc(-c3cc(O)c(C(=O)O)cc3F)n2)s1 has pIC50 at least equal to 6.
criterion met

I'd appreciate it if you could say whether Cc1nc(COC2CCCOC2)sc1-c1cccc(-c2cc(C(=O)O)cs2)n1 (stereo not drawn) has pIC50 at least equal to 6.
criterion met

====

Molecular target: hBPGM (Homo sapiens (Human), UniProt P07738)
OBSERVATION TYPE: pIC50
Give bare numbers, as −log10 of the molar value.

Cc1nc(CNc2ccccn2)sc1-c1cccc(-c2ccc(C(=O)O)c(O)c2)c1: 6.09
Cc1nc(Cc2ccccc2)sc1-c1csc(-c2cc(O)c(C(=O)O)cc2F)n1 [Example 165]: 6.62
Cc1nc(Cc2ccccc2)sc1-c1cccc(-c2cc(O)c(C(=O)O)cc2F)n1: 6.85
Cc1nc(C)c(-c2csc(-c3ccc(C(=O)O)c(O)c3F)n2)s1: 5.64

Please report pIC50 for every entry that follows.
1. Cc1ccnc(OCc2nc(C)c(-c3csc(-c4cc(O)c(C(=O)O)cc4F)n3)s2)n1
2. Cc1nc(CNC(=O)C2CCCC2)sc1-c1csc(-c2cc(O)c(C(=O)O)cc2F)n1

7.30
6.96

Please report pIC50 for every entry that follows.
1. Cc1nc(CN2CCOCC2)sc1-c1cccc(-c2ccc(C(=O)O)c(O)c2)c1
2. Cc1nc(CNC(=O)N(C)C)sc1-c1csc(-c2cc(O)c(C(=O)O)cc2F)n1
3. COC(=O)NCc1nc(C)c(-c2csc(-c3c(F)cc(C(=O)O)cc3F)n2)s1
4. Cc1nc(C)c(-c2csc(-c3ccc(C(=O)O)cc3)n2)s1
5. COC(=O)NCc1nc(C)c(-c2ccnc(-c3cc(O)c(C(=O)O)cc3F)n2)s1
6. Cc1nc(CNC(=O)C(C)(C)C)sc1-c1csc(-c2cc(O)c(C(=O)O)cc2F)n1
7. Cc1nc(COc2ccccn2)sc1-c1csc(-c2cc(O)c(C(=O)O)cc2F)n1
8. Cc1nc(COCC(N)=O)sc1-c1csc(-c2cc(O)c(C(=O)O)cc2F)n1

1: 5.43; 2: 7.25; 3: 6.08; 4: 5.48; 5: 6.51; 6: 7.31; 7: 6.77; 8: 6.46

====

Target: hBPGM (Homo sapiens (Human))
OBSERVATION TYPE: pIC50
Numbers only, as −log10 of the molar value.

Please review the entries below; each comes with its answer.
Cc1nc(COc2ccccn2)sc1-c1cccc(-c2ccc(C(=O)O)cn2)c1 [Example 69]: 5.26
Cc1nc(Cn2c(C#N)cccc2=O)sc1-c1cccc(-c2ccc(C(=O)O)c(O)c2)c1 [Example 103]: 6.02
Cc1nc(C)c(/C=C/c2ccc(C(=O)O)c(O)c2)s1 [Example 333]: 4.96
Cc1ncc(-c2cccc(-c3ccc(C(=O)O)c(O)c3)c2)s1 [Example 325]: 5.46
Cc1nc(CNC(=O)C(C)(C)C)sc1-c1cccc(-c2ccc(C(=O)O)cc2)n1 [Example 62]: 5.74

Next compound, please.
State the recorded pIC50 for this entry: Cc1nc(CC2CCCCC2)sc1-c1cccc(-c2ccc(C(=O)O)c(O)c2)c1 [Example 313]
5.04
